- Measurement Target: biotinylated bovine brain tubulin
- Measurement Conditions: competition of [3H]colchicine
Property Label: pKi
// pKi here means minus log10 of the molar concentration (mol/L)

Inquiry: For the compound COc1ccc(S(=O)(=O)Nc2cccnc2Nc2ccc(O)cc2)cc1 , what pKi is on record?
Reply text: 5.59

---

- Protocol Text: Pharmacokinetic profiles of pediatric patients after oral dosing
- Type: in vivo, human
- Measurement Conditions: human, plasma; 75 QD oral, mean±SD
Property Label: Cmax (µg/mL)
The response must be a number in µg/mL with no trailing unit.

Inquiry: For the compound COc1ccc(S(=O)(=O)Nc2cccnc2Nc2ccc(O)cc2)cc1 [ABT-751] , what Cmax is on record?
Reply text: 8

---

- Protocol Text: Pharmacokinetic profiles of pediatric patients after oral dosing
- Format: in vivo, human
- Measurement Conditions: human, in vivo; 200 QD oral, mean±SD; read-out: Tmax
Property Label: Tmax (h)
The response must be a number in h with no trailing unit.

Inquiry: For the compound COc1ccc(S(=O)(=O)Nc2cccnc2Nc2ccc(O)cc2)cc1 , what Tmax is on record?
Reply text: 3

---

- Protocol Text: Pharmacokinetic profiles of pediatric patients after oral dosing
- Format: in vivo, human
- Measurement Conditions: human, plasma; 165 QD oral, mean±SD
Property Label: Cmax (ng/mL)
The response must be a number in ng/mL with no trailing unit.

Inquiry: For the molecule COc1ccc(S(=O)(=O)Nc2cccnc2Nc2ccc(O)cc2)cc1 , what Cmax is on record?
Reply text: 13500

---

- Protocol Text: Pharmacokinetic profiles of pediatric patients after oral dosing
- Assay type: in vivo, human
- Measurement Conditions: one 75 mg per mm^2 per day oral dose for 21 days, immediate release composition
Property Label: time of maximum plasma concentration (h)
The response must be a number in h with no trailing unit.

Inquiry: For the molecule COc1ccc(S(=O)(=O)Nc2cccnc2Nc2ccc(O)cc2)cc1 , what time of maximum plasma concentration is on record?
Reply text: 2.7

---

- Protocol Text: Pharmacokinetic profiles of pediatric patients after oral dosing
- Type: in vivo, human
- Measurement Conditions: human, plasma; 130 QD oral, mean±SD; read-out: Tmax
Property Label: Tmax (h)
The response must be a number in h with no trailing unit.

Inquiry: For the molecule COc1ccc(S(=O)(=O)Nc2cccnc2Nc2ccc(O)cc2)cc1 , what Tmax is on record?
Reply text: 2.2

---

- Protocol Text: Pharmacokinetic profiles of pediatric patients after oral dosing
- Format: in vivo, human
- Measurement Conditions: human, plasma; 100 QD oral, mean±SD
Property Label: Cmax (ng/mL)
The response must be a number in ng/mL with no trailing unit.

Inquiry: For the molecule COc1ccc(S(=O)(=O)Nc2cccnc2Nc2ccc(O)cc2)cc1 , what Cmax is on record?
Reply text: 10600

---

- Protocol Text: Pharmacokinetic profiles of pediatric patients after oral dosing
- Format: in vivo, human
- Measurement Conditions: human, plasma; 100 QD oral, mean±SD; read-out: Tmax
Property Label: Tmax (h)
The response must be a number in h with no trailing unit.

Inquiry: For the compound COc1ccc(S(=O)(=O)Nc2cccnc2Nc2ccc(O)cc2)cc1 , what Tmax is on record?
Reply text: 1.9

---

- Protocol Text: Pharmacokinetic profiles of pediatric patients after oral dosing
- Format: in vivo, human
- Measurement Conditions: human, plasma; 165 QD oral, mean±SD; read-out: Tmax
Property Label: Tmax (h)
The response must be a number in h with no trailing unit.

Inquiry: For the compound COc1ccc(S(=O)(=O)Nc2cccnc2Nc2ccc(O)cc2)cc1 [ABT-751] , what Tmax is on record?
Reply text: 3
